Reference source: patent US4962108A

Each entry below carries its measured MIC, system: Proteus rettgeri M 1771.
One number for each entry, in µg/mL.

CCN[C@H]1C[C@H]2CC[C@@H](C1)N2c1c(F)cc2c(=O)c(C(=O)O)cn(C3CC3)c2c1F : 3.1
CCN[C@H]1C[C@H]2CC[C@@H](C1)N2c1nc2c(cc1F)c(=O)c(C(=O)O)cn2C1CC1 : 3.1
O=C(O)c1cn(C2CC2)c2nc(N3CC4CCCC3CN4)c(F)cc2c1=O (stereo not shown) : 0.4

Kindly consider the entry below.
Consider O=C(O)c1cn(C2CC2)c2cc(N3CC4CCCC3CN4)c(F)cc2c1=O (stereo not shown) . Its measured MIC is 0.4
